Sourced from the supplement of paper PMC13380429

# System: Vero E6 infected with SARS-CoV-2
# ASSAY_PROTOCOL: inhibition of SARS-CoV-2 cytopathic effect; higher = more antiviral protection, active = above 15
# MEASUREMENT_PARAMETERS: 1 nM; 48 h
# inhibition of SARS-CoV-2 cytopathic effect listing for each entry below
PROPERTY: inhibition of SARS-CoV-2 cytopathic effect

1. CCCC(=O)C1CCN(c2ncnc3c2CN(C(=O)c2ccc(-c4ccccc4)cc2)CC3)CC1 | -1.91% (inactive)
2. C[C@]12N[C@H](Cc3ccccc31)c1ccccc12 [dizocilpine-(-)] | 1.97% (inactive)
3. CC(CN(C)C)C(C)(O)Cc1ccc(Cl)cc1 (stereo not given) | -0.23% (inactive)
4. O=C(Nc1cc(C(F)(F)F)cc(C(F)(F)F)c1)c1cc(Cl)ccc1O | -4.92% (inactive)
5. Cc1nc2sccn2c(=O)c1CCN1CCC(=C(c2ccccc2)c2ccc(F)cc2)CC1 | 1.18% (inactive)
6. COc1cccc(/C=N/N=C/c2cccc(OC)c2)c1 | -0.08% (inactive)
7. CCN(CC)CCOc1ccccc1C(=O)CCc1ccccc1 | 1.2% (inactive)
8. C#C[C@]1(O)CC[C@H]2[C@@H]3CCC4=CC(=O)CC[C@@H]4[C@H]3C(=C)C[C@@]21CC | -0.26% (inactive)
9. C[C@]12CCC(=O)C(O)=C1CC[C@@H]1[C@@H]2CC[C@]2(C)C(=O)CC[C@@H]12 | -6.07% (inactive)
10. OCc1ccccc1O[C@@H]1O[C@H](CO)[C@@H](O)[C@H](O)[C@H]1O | 0.33% (inactive)
11. Cc1ccc(-c2n[nH]c3c2C(c2cccc(O)c2)N(c2ccc(C(=O)O)cc2)C3=O)cc1 (stereo not given) | -0.75% (inactive)
12. C=C1C(=O)[C@]23[C@H](O)[C@H]1CC[C@H]2[C@@]12CO[C@]3(O)[C@@H](O)[C@@H]1C(C)(C)CC[C@@H]2O | -0.74% (inactive)
13. COc1cc2c(cc1OCCCN1CCCC1)N=C(N)C21CCC1 | -1.51% (inactive)
14. CN[C@H]1CN(c2ccc3c(=O)c(C(=O)O)cn(-c4nccs4)c3n2)C[C@@H]1OC | 0.95% (inactive)
15. COC(=O)Nc1ccc2[nH]cc(CCNC(C)=O)c2c1 | -2.08% (inactive)
16. CN(C)CC[C@@]1(c2ccc(Cl)cc2)Cc2ccccc2C(=O)O1 (racemic) | -1.76% (inactive)
17. Oc1cccc2cccnc12 | -1.21% (inactive)
18. CCc1cccc(CC)c1NC(=O)CN(CC(=O)O)CC(=O)O | -0.66% (inactive)
19. N=C(N)NCCC[C@H](N)C(=O)O | 2.26% (inactive)
20. Cc1ncc(CO)c(/C=N/NC(=O)c2ccncc2)c1O [pyridoxal-isonicotinoyl-hydrazone] | 3.14% (inactive)
21. O=C1C[C@@H](c2ccc(O)cc2)Oc2cc(O)ccc21 | -0.59% (inactive)
22. CCOc1cc(OCC)c(C(=O)CCC(=O)O)cc1OCC [trepibutone] | -2.61% (inactive)
23. Cc1c(-c2ccccc2)oc2c(C(=O)OCCN3CCCCC3)cccc2c1=O [flavoxate] | -1.05% (inactive)
24. COc1ccc(CCN(C)CCc2ccc(OC)c(OC)c2)cc1OC | 0.34% (inactive)
25. CO[C@H]1C[C@H](O[C@H]2[C@H](C)O[C@@H](O[C@@H]3/C(C)=C/C[C@@H]4C[C@@H](C[C@]5(C=C[C@H](C)[C@@H](C6CCCCC6)O5)O4)OC(=O)[C@@H]4C=C(C)[C@@H](O)[C@H]5OC/C(=C\C=C\[C@@H]3C)[C@]54O)C[C@@H]2OC)O[C@@H](C)[C@@H]1O | 0.81% (inactive)
26. COc1ccc(C(CN(C)C)C2(O)CCCCC2)cc1 (stereo not given) | 0.56% (inactive)
27. O=C1OC2(c3ccc(O)cc3Oc3cc(O)ccc32)c2ccccc21 | -8.63% (inactive)
28. N=C1NC(=O)/C(=C/c2ccc(O)cc2)S1 | -0.65% (inactive)
29. C[C@@]1(O)[C@H](O)[C@@H](CO)O[C@H]1n1cnc2c(NC3CCCC3)nc(Cl)nc21 | 1.63% (inactive)
30. O=C(Nc1cccc2c(=O)cc(-c3nnn[nH]3)oc12)c1ccc(OCCCCc2ccccc2)cc1 | -0.09% (inactive)
31. Oc1c(CN2CCCC2)cc(COCc2ccccc2)c2cccnc12 | -1.11% (inactive)
32. CC(C)[C@H](CO)Nc1nc(Nc2cc(N)cc(Cl)c2)c2ncn(C(C)C)c2n1 | 4.14% (inactive)
33. BrC1C(Br)C(Br)C(Br)C(Br)C1Br (stereo not given) | -2.03% (inactive)
34. C[C@]12CC[C@@H]3c4ccc(O)cc4CC[C@H]3[C@@H]1CC[C@@H]2OC(=O)CCC1CCCC1 [estradiol-cypionate] | -1.71% (inactive)
35. CC1(C)O[C@H]2CC(=O)OC[C@]23[C@H]2CC[C@@]4(C)[C@H](c5ccoc5)OC(=O)[C@H]5O[C@]54[C@]2(C)C(=O)C[C@@H]13 | -0.51% (inactive)
